target_or_test_system: Acetyl-CoA carboxylase 1 (Homo sapiens)
assay_summary: Inhibition of recombinant human C-terminal His-tagged ACC1 (1 to 2383 residues) expressed in baculovirus infected Sf9 insect cells preincubated for 15 mins followed by substrate addition and measured after 60 mins by ADP-glo luminescence assay
measured_endpoint: IC50

Worked examples follow.
smiles_record=CC(C)(C)n1cc2c(n1)C(=O)CC1(CCN(C(=O)c3cc(N4CCNCC4)nc4ccccc34)CC1)O2 result="> 20 nM"
smiles_record=CC(C)(C)n1cc2c(n1)C(=O)CC1(CCN(C(=O)c3cc(N4CCOCC4)nc4ccccc34)CC1)O2 result="> 20 nM"
smiles_record=CC(C)(C)n1cc2c(n1)C(=O)CC1(CCN(C(=O)c3cc(-c4ccccc4Cl)nc4ccccc34)CC1)O2 result="> 100 nM"
smiles_record=Cc1ccccc1-c1cc(C(=O)N2CCC3(CC2)CC(=O)c2nn(C(C)(C)C)cc2O3)c2ccccc2n1 result="> 100 nM"
smiles_record=COc1cc(C(=O)N2CCC3(CC2)CC(=O)c2nn(C(C)(C)C)cc2O3)c2ccccc2n1 result="> 100 nM"

Acetyl-CoA carboxylase 1 (Homo sapiens) assay, compound CN1CCN(c2cc(C(=O)N3CCC4(CC3)CC(=O)c3nn(C(C)(C)C)cc3O4)c3ccccc3n2)CC1 , recorded IC50 = > 20 nM

Acetyl-CoA carboxylase 1 (Homo sapiens) assay, compound CC(C)Oc1cc(C(=O)N2CCC3(CC2)CC(=O)c2nn(C(C)(C)C)cc2O3)c2ccccc2n1 , recorded IC50 = > 20 nM
